Where these numbers come from: patent US9492508B2

- target: T1, rat PTH receptor (rat, UniProt P25961 27-591, limits assumed)
- T1 construct: R0 and RG conformations assayed separately by the method of WO 2009/017809 or a similar one; also called rat PTHR1
- T1 sequence (looked up): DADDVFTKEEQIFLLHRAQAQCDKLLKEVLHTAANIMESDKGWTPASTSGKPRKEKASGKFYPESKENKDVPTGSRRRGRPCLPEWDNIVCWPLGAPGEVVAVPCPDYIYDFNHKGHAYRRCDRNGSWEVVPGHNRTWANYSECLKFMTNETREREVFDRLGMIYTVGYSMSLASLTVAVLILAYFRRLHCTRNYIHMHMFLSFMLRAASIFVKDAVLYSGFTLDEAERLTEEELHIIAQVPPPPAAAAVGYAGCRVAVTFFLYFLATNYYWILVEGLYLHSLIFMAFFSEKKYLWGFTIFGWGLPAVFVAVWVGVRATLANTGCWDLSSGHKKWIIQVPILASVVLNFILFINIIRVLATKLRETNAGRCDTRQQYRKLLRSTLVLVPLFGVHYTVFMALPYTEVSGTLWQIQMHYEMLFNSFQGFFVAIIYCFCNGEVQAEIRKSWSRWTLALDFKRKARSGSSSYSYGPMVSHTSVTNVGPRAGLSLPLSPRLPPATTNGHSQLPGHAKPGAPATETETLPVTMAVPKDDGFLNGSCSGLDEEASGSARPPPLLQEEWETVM
- protocolDescription: radioligand displacement, rat PTHR1, R0 conformation
Ends that are not written are not given here.
attributeMeasured: IC50 (nM)
Numbers only here, please. The scale is nM.

- AVAEIQLMHQRAKWIQDLRRRFFLHHLIAEIHTAEI-OH (Synthetic hybrid analog of human PTH(1-14) and human PTHrP(15-36); also called Super-potent PTH; Mc-PTH(1-14)/rP(15-36)OH) [SP-PTH ([Ala1,3,12,Gln10,Arg11,Trp14]PTH(1-14)/PTHrP(15-36))]: 1.4

# context switch: different binder, same IC50
Asked: Which IC50 is listed for AVAEIQLMHQRAKWIQDARRRAFLHKLIAEIHTAEI-OH (Synthetic hybrid analog of human PTH(1-14) and human PTHrP(15-36); also called Mc-PTH(1-14)/AAK-rP(15-36)OH; SP-AAK) [SP-PTH-AAK ([Ala1,3,12,18,22,Gln10,Arg11,Trp14,Lys26]PTH(1-14)/PTHrP(15-36))] ?
Given back: 0.21
